- targetUnderTest: human PAH with the R408W mutation (Homo sapiens, UniProt P00439, R408W)
- Construct: expressed in transfected cells
- Sequence (P00439 whole entry R408W): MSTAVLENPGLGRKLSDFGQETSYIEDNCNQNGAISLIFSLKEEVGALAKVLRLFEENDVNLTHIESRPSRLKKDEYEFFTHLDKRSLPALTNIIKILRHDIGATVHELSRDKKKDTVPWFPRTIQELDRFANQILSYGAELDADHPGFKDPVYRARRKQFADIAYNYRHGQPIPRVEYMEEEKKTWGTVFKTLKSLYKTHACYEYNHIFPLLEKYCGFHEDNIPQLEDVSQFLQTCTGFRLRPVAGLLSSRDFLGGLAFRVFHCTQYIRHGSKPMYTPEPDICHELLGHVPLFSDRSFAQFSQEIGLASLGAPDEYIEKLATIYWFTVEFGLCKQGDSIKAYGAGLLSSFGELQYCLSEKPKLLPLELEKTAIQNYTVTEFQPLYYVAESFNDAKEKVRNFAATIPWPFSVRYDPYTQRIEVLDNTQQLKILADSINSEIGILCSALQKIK
- testProtocol: Cell Based Phenylalanine Flux Assay;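 further: after compound treatment, cells received sepiapterin plus isotope-labelled Phenylalanine for 4 hours, then labelled Tyrosine in the medium was quantified, 10-point 2-fold dilution series run in duplicate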
- conditionDetails: A375 cells expressing human R408W PAH; 24 hrs compound incubation; 13C-Tyrosine by LC-MS; average where tested multiple times; read-out: AC50

# smilesEntry, AC50
data = [
    ("Cc1cccn2nc([C@H]3c4nc[nH]c4CCN3C(=O)c3nnc(-c4cnn(C5CCC5)c4)o3)cc12", "> 5000 nM"),
    ("Cc1ncoc1C(=O)N1CCc2[nH]cnc2[C@H]1c1cc2cccc(Cl)n2n1", "500 to 1000 nM"),
    ("O=C(c1nnc(-c2cccnc2)o1)N1CCc2[nH]cnc2[C@@H]1c1cc2cccc(C(F)F)n2n1", "> 5000 nM"),
    ("O=C(c1cnco1)N1CCc2[nH]cnc2[C@@H]1c1cc2c(F)cccn2n1", "1000 to 5000 nM"),
    ("O=C(c1nnc(-c2ncccc2F)o1)N1CCc2[nH]cnc2[C@H]1c1cc2c(Cl)cccn2n1", "< 500 nM"),
    ("CC(C)(F)c1nnc(C(=O)N2CCc3[nH]cnc3[C@H]2c2cc3cccc(C(F)(F)F)n3n2)o1", "500 to 1000 nM"),
    ("Cn1cc(-c2nnc(C(=O)N3CCc4[nH]cnc4[C@@H]3c3cc4cccc(C(F)(F)F)n4n3)o2)cn1", "1000 to 5000 nM"),
    ("Cn1cc(-c2nnc(C(=O)N3CCc4[nH]cnc4[C@H]3c3cc4ccc(F)cn4n3)o2)cn1", "500 to 1000 nM"),
    ("Cc1cccc2cc([C@H]3c4nc[nH]c4CCN3C(=O)c3nnc(-c4cccnc4)o3)nn12", "1000 to 5000 nM"),
    ("CC1(c2nnc(C(=O)N3CCc4[nH]cnc4[C@@H]3c3cc4ccccn4n3)o2)CC1", "1000 to 5000 nM"),
    ("O=C(c1nnc(C2CC2)o1)N1CCc2[nH]cnc2[C@@H]1c1cc2cc(F)ccn2n1", "1000 to 5000 nM"),
    ("O=C(c1nnc(-c2cnccn2)o1)N1CCc2[nH]cnc2[C@@H]1c1cc2cccc(C(F)(F)F)n2n1", "> 5000 nM"),
    ("Cc1cccc2cc([C@@H]3c4nc[nH]c4CCN3C(=O)c3nnc(C(C)(C)C)o3)nn12", "< 500 nM"),
    ("Cc1nn(C)cc1-c1nnc(C(=O)N2CCc3[nH]cnc3[C@H]2c2cc3c(C)cccn3n2)o1", "< 500 nM"),
    ("O=C(c1nnc(-c2cnn(CC(F)(F)F)c2)o1)N1CCc2[nH]cnc2[C@@H]1c1cc2ccccn2n1", "> 5000 nM"),
    ("CC(C)(O)c1nc(C(F)F)c(C(=O)N2CCc3[nH]cnc3[C@H]2c2cc3cccc(Cl)n3n2)o1", "500 to 1000 nM"),
    ("Cc1nc(C(C)(C)C#N)oc1C(=O)N1CCc2[nH]cnc2[C@H]1c1cc2ccccn2n1", "500 to 1000 nM"),
    ("Cc1cccc2cc([C@H]3c4nc[nH]c4CCN3C(=O)c3ocnc3C(F)F)nn12", "500 to 1000 nM"),
    ("O=C(c1nnc(-c2ncccc2F)o1)N1CCc2[nH]cnc2[C@@H]1c1cc2cccc(F)n2n1", "1000 to 5000 nM"),
    ("O=C(c1nnc(-c2ncccc2F)o1)N1CCc2[nH]cnc2[C@@H]1c1cc2ccccn2n1", "> 5000 nM"),
    ("O=C(c1nnc(C2CCC2)o1)N1CCc2[nH]cnc2[C@H]1c1cc2cccc(C(F)F)n2n1", "500 to 1000 nM"),
]

Values were extracted from patent US20230365592A1.
